- SUBJECT_OF_TEST: AR protein (Homo sapiens, UniProt P10275, T878A)
- Construct: host or cells: LNCaP FGC
- Sequence (P10275 whole entry T878A): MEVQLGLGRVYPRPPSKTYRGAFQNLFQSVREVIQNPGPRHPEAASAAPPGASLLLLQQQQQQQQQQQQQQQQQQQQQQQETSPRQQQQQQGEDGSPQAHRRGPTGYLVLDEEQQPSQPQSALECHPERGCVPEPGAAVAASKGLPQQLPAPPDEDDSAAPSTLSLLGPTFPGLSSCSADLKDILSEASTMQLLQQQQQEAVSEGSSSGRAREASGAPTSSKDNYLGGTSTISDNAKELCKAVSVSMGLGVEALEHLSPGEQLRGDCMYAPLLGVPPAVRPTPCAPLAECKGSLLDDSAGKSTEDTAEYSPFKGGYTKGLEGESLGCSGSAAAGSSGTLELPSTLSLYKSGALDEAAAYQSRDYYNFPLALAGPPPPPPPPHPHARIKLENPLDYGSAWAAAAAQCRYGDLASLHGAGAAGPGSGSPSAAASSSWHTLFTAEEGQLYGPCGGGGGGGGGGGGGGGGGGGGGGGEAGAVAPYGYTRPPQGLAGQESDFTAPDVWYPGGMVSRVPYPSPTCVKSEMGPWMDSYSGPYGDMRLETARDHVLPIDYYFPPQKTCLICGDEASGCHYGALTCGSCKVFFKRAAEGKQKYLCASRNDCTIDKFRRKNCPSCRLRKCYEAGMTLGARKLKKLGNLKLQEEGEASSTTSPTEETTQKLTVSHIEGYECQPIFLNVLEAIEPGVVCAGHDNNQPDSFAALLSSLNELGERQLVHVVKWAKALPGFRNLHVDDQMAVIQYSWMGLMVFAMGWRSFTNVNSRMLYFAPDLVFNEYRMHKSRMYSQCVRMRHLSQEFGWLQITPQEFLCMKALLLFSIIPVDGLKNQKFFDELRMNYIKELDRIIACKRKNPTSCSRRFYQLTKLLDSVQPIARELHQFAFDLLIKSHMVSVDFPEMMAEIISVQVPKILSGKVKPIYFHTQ
- PROTOCOL_TEXT: Degradation of AR protein in LNCAP cells (Western blot, 8 h)
- Format: cell-based
- STUDY_CONDITIONS: LNCaP FGC cells, 100 nM
REPORTED_PROPERTY: Degradation rates of the AR protein in LNCAP cells, 100 nM (%)
Please respond with the number in % and leave the unit unwritten.

COMPOUND	RESULT
C[C@H]1CC2(CCN(c3ccc(C(=O)N4CCC(CN5CCC6(CC5)COc5cc7c(cc56)CN(C5CCC(=O)NC5=O)C7=O)CC4)cc3)CC2)CN1c1ccc(C#N)c(Cl)c1 (stereo partly drawn)	63
COc1cc(O[C@H]2CC[C@H](NC(=O)c3ccc(N4CCC(F)(CN5CCC6(CC5)COc5c6ccc6c5C(=O)N(C5CCC(=O)NC5=O)C6)CC4)nn3)CC2)ccc1C#N (relative stereo)	61

Pending compound:
Form entry - test system: AR protein (Homo sapiens, UniProt P10275, T878A); read-out: Degradation rates of the AR protein in LNCAP cells, 100 nM (%); compound: C[C@H]1CC2(CCN(c3ccc(N4CCC(CN5CCC6(CC5)COc5cc7c(cc56)CN(C5CCC(=O)NC5=O)C7=O)CC4)cc3)CC2)CN1c1ccc(C#N)c(Cl)c1 (stereo partly drawn)
70
